target: recombinant N-terminal PMS2 (residues 1-365) (Homo sapiens, UniProt P54278); construct: recombinant N-terminal PMS2 (residues 1-365); assay: Fluorescence Polarisation Assay for PMS2; format: binding; details: PMS2 IC50, fluorescence polarisation probe displacement; 10 nM N-terminal PMS2, 5 nM probe compound
Sequence (P54278 1-365): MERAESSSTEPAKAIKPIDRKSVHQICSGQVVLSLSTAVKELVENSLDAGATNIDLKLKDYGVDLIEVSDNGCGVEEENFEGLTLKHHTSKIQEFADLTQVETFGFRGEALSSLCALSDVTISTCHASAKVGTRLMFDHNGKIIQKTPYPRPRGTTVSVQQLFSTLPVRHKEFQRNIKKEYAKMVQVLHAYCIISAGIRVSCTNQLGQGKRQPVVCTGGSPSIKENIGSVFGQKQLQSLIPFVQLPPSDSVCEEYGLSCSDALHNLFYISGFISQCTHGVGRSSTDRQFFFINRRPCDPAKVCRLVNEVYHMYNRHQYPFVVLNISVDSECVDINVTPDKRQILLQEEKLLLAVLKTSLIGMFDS
MEASURED QUANTITY: IC50

Would you kindly share the measured IC50 for CCOc1cc(O)cc(O)c1C(=O)N1Cc2cccc(NC3CCOC3)c2C1 (stereo not shown) [Example 17] ?
> 10 µM

----------
target: recombinant N-terminal PMS2 (residues 1-365) (Homo sapiens, UniProt P54278); construct: recombinant N-terminal PMS2 (residues 1-365); assay: Fluorescence Polarisation Assay for PMS2; format: binding; conditions: fluorescence polarisation probe displacement; 10 nM N-terminal PMS2, 5 nM probe compound; read-out: PMS2 IC50
MEASURED QUANTITY: IC50

Solved cases (5 shown):
COMPOUND	ASSAY SYSTEM	IC50
O=C(c1c(O)cc(O)cc1OCC1CCCCC1)N1CCc2cccc(NC3CCOC3)c2C1 (stereo not shown)	recombinant N-terminal PMS2 (residues 1-365) (Homo sapiens, UniProt P54278)	1 to 10 µM
O=C(c1c(O)cc(O)cc1OCc1ccccc1)N1Cc2cccc(CNC3COC3)c2C1	recombinant N-terminal PMS2 (residues 1-365) (Homo sapiens, UniProt P54278)	1 to 10 µM
O=C(c1c(O)cc(O)cc1OCc1ccccc1)N1Cc2cccc(NC3CCCOC3)c2C1 (stereo not shown) [Example 14]	recombinant N-terminal PMS2 (residues 1-365) (Homo sapiens, UniProt P54278)	1 to 10 µM
CN1CCN(Cc2cccc3c2CN(C(=O)c2c(O)cc(O)cc2OCc2ccccc2)C3)CC1	recombinant N-terminal PMS2 (residues 1-365) (Homo sapiens, UniProt P54278)	1 to 10 µM
O=C(c1c(O)cc(O)cc1OCc1ccccc1)N1CCc2ncnc(N[C@H]3CCOC3)c2C1	recombinant N-terminal PMS2 (residues 1-365) (Homo sapiens, UniProt P54278)	1 to 10 µM

Quick request: IC50 for each listed item, please.
1. Cn1cc(Nc2cccc3c2CN(C(=O)c2c(O)cc(O)cc2OCc2ccccc2)CC3)ccc1=O
2. O=C(c1c(O)cc(O)cc1OCc1ccccc1)N1Cc2ccc(CNC3CCOC3)cc2C1 (stereo not shown)

1 to 10 µM
< 1 µM
